# Test system: Mycobacterium tuberculosis Erdman (autoluminescent)
# assay-details: total FIC50 (Loewe) at 50% inhibition, three-drug combination (log2); higher = more antagonistic
# condition-info: in vitro model: acidic pH 5.7; time point: constant (~7 days, model-specific)
Below, each entry is listed alongside its reported total FIC50.

molecule | total FIC50
CC[C@@H](CO)NCCN[C@@H](CC)CO [ethambutol] + COc1c(N2C[C@@H]3CCCN[C@@H]3C2)c(F)cc2c(=O)c(C(=O)O)cn(C3CC3)c12 [moxifloxacin] + CO[C@H]1/C=C/O[C@@]2(C)Oc3c(C)c(O)c4c(O)c(c(/C=N/N5CCN(C)CC5)c(O)c4c3C2=O)NC(=O)/C(C)=C\C=C\[C@H](C)[C@H](O)[C@@H](C)[C@@H](O)[C@@H](C)[C@H](OC(C)=O)[C@@H]1C [rifampicin] | 0.27
CC[C@@H](CO)NCCN[C@@H](CC)CO [ethambutol] + NNC(=O)c1ccncc1 [isoniazid] + NC(=O)c1cnccn1 [pyrazinamide] | 0.219
NNC(=O)c1ccncc1 [isoniazid] + NC(=O)c1cnccn1 [pyrazinamide] + CO[C@H]1/C=C/O[C@@]2(C)Oc3c(C)c(O)c4c(O)c(c(/C=N/N5CCN(C6CCCC6)CC5)c(O)c4c3C2=O)NC(=O)/C(C)=C\C=C\[C@H](C)[C@H](O)[C@@H](C)[C@@H](O)[C@@H](C)[C@H](OC(C)=O)[C@@H]1C [rifapentine] | -3.55
CC(=O)NC[C@H]1CN(c2ccc(N3CCOCC3)c(F)c2)C(=O)O1 [linezolid] + O=[N+]([O-])c1cn2c(n1)OC[C@@H](OCc1ccc(OC(F)(F)F)cc1)C2 [pretomanid] + CO[C@H]1/C=C/O[C@@]2(C)Oc3c(C)c(O)c4c(O)c(c(/C=N/N5CCN(C)CC5)c(O)c4c3C2=O)NC(=O)/C(C)=C\C=C\[C@H](C)[C@H](O)[C@@H](C)[C@@H](O)[C@@H](C)[C@H](OC(C)=O)[C@@H]1C [rifampicin] | 0.745
COc1nc2ccc(Br)cc2cc1[C@@H](c1ccccc1)[C@@](O)(CCN(C)C)c1cccc2ccccc12 [bedaquiline] + COc1c(N2C[C@@H]3CCCN[C@@H]3C2)c(F)cc2c(=O)c(C(=O)O)cn(C3CC3)c12 [moxifloxacin] + CO[C@H]1/C=C/O[C@@]2(C)Oc3c(C)c(O)c4c(O)c(c(/C=N/N5CCN(C)CC5)c(O)c4c3C2=O)NC(=O)/C(C)=C\C=C\[C@H](C)[C@H](O)[C@@H](C)[C@@H](O)[C@@H](C)[C@H](OC(C)=O)[C@@H]1C [rifampicin] | 0.708
CC(C)/N=c1\cc2n(-c3ccc(Cl)cc3)c3ccccc3nc-2cc1Nc1ccc(Cl)cc1 [clofazimine] + CC(=O)NC[C@H]1CN(c2ccc(N3CCOCC3)c(F)c2)C(=O)O1 [linezolid] + CO[C@H]1/C=C/O[C@@]2(C)Oc3c(C)c(O)c4c(O)c(c(/C=N/N5CCN(C)CC5)c(O)c4c3C2=O)NC(=O)/C(C)=C\C=C\[C@H](C)[C@H](O)[C@@H](C)[C@@H](O)[C@@H](C)[C@H](OC(C)=O)[C@@H]1C [rifampicin] | 0.38
